# System: U2OS
# protocol-summary: Multiplex assay against U2OS
# Type: toxicity, cell-based
# study-conditions: human, 12 h, 10 µM, compound concentration 10 uM, replicate 1
Checkbox rule: Population Pyknosed Nuclei (%) lower than 20% = true; Population Pyknosed Nuclei (%) not lower than 20% = false.

>>> print(df.to_string())
                                   compound  class_assignment
0  CN(C)CCOc1ccc(-c2nc(-c3ccncc3)c(-c3ccc4c(c3)CC/C4=N\O)[nH]2)cc1              true
1             CNc1oc(-c2cccc3ccccc23)nc1C#N             false
2  CCOc1cc(N2CCC(O)CC2)ccc1Nc1ncc2c(n1)N(C1CCCC1)CCC(=O)N2C              true
3  COc1ccc(NS(=O)(=O)c2sc3ccc(Cl)cc3c2C)cc1N1CCNCC1.Cl             false
4  c1ccc2oc(-c3csc(C4CCN(Cc5nc6ncccc6[nH]5)CC4)n3)cc2c1              true
5  CC(C)N1CCC(C)(C)c2cc(C#Cc3ccc(C(=O)O)cc3)ccc21              true
6  CCc1cc2c(cc1CC)CC(NC[C@H](O)c1ccc(O)c3[nH]c(=O)ccc13)C2             false
7  CCn1c(-c2nonc2N)nc2cnc(Oc3cccc(NC(=O)c4ccc(OCCN5CCOCC5)cc4)c3)cc21 [GSK-269962A]             false
8  CCOc1cc2ncc(C#N)c(Nc3ccc(OCc4cccc(F)c4)c(Cl)c3)c2cc1NC(=O)/C=C/CN(C)C              true

Each recorded value in this set is attributed to ChEMBL document CHEMBL4689842.
